assay_system: UniProtKB P51449
Sequence (P51449 269-508): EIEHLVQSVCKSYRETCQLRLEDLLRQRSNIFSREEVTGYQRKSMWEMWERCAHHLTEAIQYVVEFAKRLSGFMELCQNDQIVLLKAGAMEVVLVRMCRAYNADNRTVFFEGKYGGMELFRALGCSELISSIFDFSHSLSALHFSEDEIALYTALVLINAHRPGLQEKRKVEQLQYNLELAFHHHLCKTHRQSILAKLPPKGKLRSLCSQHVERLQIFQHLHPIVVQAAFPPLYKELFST
assay_comment: RORγ-Ligand Binding Domain (LBD) TR-FRET Assay Protocol I
Format: biochemical
test_context: RORγ-LBD lysate from SF9 cells, SRC1-2 peptide
readout_type: EC50 (nM)

Some entries whose results are on file:
compound=CC(=O)NC[C@H]1CN(S(=O)(=O)c2cccc(C)c2)c2cc(NC(=O)c3c(F)cccc3Cl)cnc2O1 readout_type=EC50 data_value=336
compound=Cc1cccc(S(=O)(=O)N2CCCc3ncc(NC(=O)c4c(F)cccc4Cl)cc32)c1 readout_type=EC50 data_value=52
compound="CC1COc2ncc(NC(=O)c3c(F)cccc3Cl)cc2N1S(=O)(=O)c1cccc(C#N)c1 (stereo not shown)" readout_type=EC50 data_value=390

(1) O=C(Nc1cc2c(cn1)cnn2S(=O)(=O)c1ccc(F)cc1)c1c(F)cccc1Cl
(2) O=C(Nc1cc2c(cn1)cnn2S(=O)(=O)c1ccc(F)cc1)c1c(F)cccc1F
Among 1 and 2 , whose measured EC50 is the smaller figure? Your choice should be expressed through its label.
1
(1: 2400 nM, 2: 50000 nM)

(a) CC1COc2ncc(NC(=O)c3c(Cl)cccc3C(F)(F)F)cc2N1S(=O)(=O)c1ccc(F)cc1 (stereo not shown)
(b) N#Cc1cccc(S(=O)(=O)n2ncc3ncc(NC(=O)c4c(F)cccc4Cl)cc32)c1
(c) C[C@H]1CN(S(=O)(=O)c2ccc(F)cc2)c2cc(NC(=O)c3c(F)cccc3Cl)cnc2O1
(d) O=C(Nc1cnc2c(c1)N(S(=O)(=O)c1ccc(F)c(F)c1)CCO2)c1c(F)cccc1Cl
(e) O=C(Nc1cnc2cnn(S(=O)(=O)c3cccc(C(F)(F)F)c3)c2c1)c1c(F)cccc1Cl
Rank by EC50 (largest to smallest). Hello, could you send the labels back in the order asked? Thank you.
b, e, c, d, a

(I) CC(=O)NC[C@H]1CN(S(=O)(=O)c2cccc(C)c2)c2cc(NC(=O)[C@@H](C)c3ccccc3)cnc2O1
(II) O=C(Nc1cc2c(cn1)cnn2S(=O)(=O)c1ccc(F)cc1)c1c(Cl)cccc1C(F)(F)F
(III) CC(C)(C)c1cccc(S(=O)(=O)n2ncc3cnc(NC(=O)c4c(F)cccc4Cl)cc32)c1
(IV) O=C(Nc1cnc2c(c1)N(S(=O)(=O)c1ccc(F)cc1)CCO2)c1c(F)cccc1Cl
Please order the records by their reported EC50, lowest number first. // format: requested-order list of labels
IV, I, II, III

(1) Cc1cccc(S(=O)(=O)N2CCCc3ncc(NC(=O)[C@@H](C)c4ccccc4)cc32)c1
(2) C[C@H]1CN(S(=O)(=O)c2cccc(C3CC3)c2)c2cc(NC(=O)c3c(F)cccc3Cl)cnc2O1
(3) O=C(Nc1cc2c(cn1)cnn2S(=O)(=O)c1cccc(C(F)(F)F)c1)c1c(F)cccc1Cl
(4) O=C(Nc1cc2c(cn1)cnn2S(=O)(=O)c1cccc(Cl)c1)c1c(F)cccc1Cl
(5) C[C@H]1CN(S(=O)(=O)c2cccc(C#N)c2)c2cc(NC(=O)c3c(F)cccc3Cl)cnc2O1
Hi! Can you put these in order of EC50, lowest number first? Response field: labels, in requested order.
2, 1, 5, 3, 4

(A) Cc1nn(C(F)F)cc1S(=O)(=O)n1ncc2cnc(NC(=O)c3c(F)cccc3Cl)cc21
(B) O=C(Nc1cnc2c(c1)N(S(=O)(=O)c1ccc(F)cc1)CCC2)c1c(F)cccc1F
(C) O=C(Nc1cnc2c(c1)N(S(=O)(=O)c1ccc(Cl)cc1)CCO2)c1c(F)cccc1Cl
Provide the items ranked by increasing EC50. Form entry: ranked labels (order as requested).
C, A, B

(1) CCc1cccc(S(=O)(=O)N2C[C@H](C)Oc3ncc(NC(=O)c4c(F)cccc4Cl)cc32)c1
(2) N#Cc1cccc(S(=O)(=O)N2CCOc3ncc(NC(=O)c4c(F)cccc4Cl)cc32)c1
Select one. Lower EC50: 1 or 2 // respond with label for picked entry
1

(A) C[C@H](C(=O)Nc1cnc2c(c1)N(S(=O)(=O)c1ccc(F)cc1)C[C@H](C)O2)c1ccccc1
(B) Cc1cccc(S(=O)(=O)N2C[C@H](C)Oc3ncc(NC(=O)c4c(F)cccc4C(F)(F)F)cc32)c1
Between the entries labeled A and B , whose measured EC50 is lower? # respond with the chosen item's label
B
(B: 132 nM, A: 3050 nM)

(1) CC1COc2ncc(NC(=O)c3c(F)cccc3Cl)cc2N1S(=O)(=O)c1ccc(F)cc1 (stereo not shown)
(2) Cc1cccc(S(=O)(=O)N2C[C@H](C)Oc3ncc(NC(=O)[C@@H](C)c4ccccc4)cc32)c1
Response body: label of entry with the larger EC50; valid values 1 , 2 . Choose, then provide that item's label.
2

Data provenance: patent US9657033B2
